Answer each item with its documented Sleep prolonging rate (%).
Tested on: male ICR-mice
Assay: Potentiation of sodium pentobarbital sleeping time test
Format: in vivo
Settings: intraperitoneal, 5 mg/kg, 38 mg/kg sodium pentobarbital 30 min later
Express your answer in %, writing the number without its unit.

State the recorded Sleep prolonging rate (%) for this entry: O=C(O)[C@@H](Cc1ccc(O)cc1)Nc1ncnc2c1ncn2[C@@H]1O[C@H](CO)C(O)C1O (stereo partly drawn) 82

Same thing, different compound: O=C(O)C(Cc1c[nH]c2ccc(O)cc12)Nc1ncnc2c1ncn2[C@@H]1O[C@H](CO)C(O)C1O (stereo partly drawn) [Example 115, N-(6-adenosine)-5-hydroxy tryptophan] 60

Same thing, different compound: CC(Nc1ncnc2c1ncn2[C@@H]1O[C@H](CO)[C@@H](O)[C@H]1O)c1ccccc1 (mixture of isomers) [Example 45, N^6-[(±)-1-(phenyl)-ethyl]-adenosine] 254

---

Answer each item with its documented Sleep prolonging rate (%).
Test system: male ICR-mice
Test: Potentiation of sodium pentobarbital sleeping time test
Format: in vivo
Details: oral, 5 mg/kg, 38 mg/kg sodium pentobarbital 60 min later
Express your answer in %, writing the number without its unit.

State the recorded Sleep prolonging rate (%) for this entry: CC(Nc1ncnc2c1ncn2[C@@H]1O[C@H](CO)[C@@H](O)[C@H]1O)c1ccc(O)cc1 (mixture of isomers) 50

Same thing, different molecule: CCCC(Nc1ncnc2c1ncn2[C@@H]1O[C@H](CO)[C@@H](O)[C@H]1O)c1ccc(OC)cc1 (mixture of isomers) 80

Same thing, different molecule: OC[C@H]1O[C@@H](n2cnc3c(NCCc4c[nH]c5ccccc45)ncnc32)[C@H](O)[C@@H]1O [Example 44, N^6-[(1H-Indole-3-yl)-ethyl]-adenosine] 78

---

Tested on: male ICR-mice
Test: Potentiation of sodium pentobarbital sleeping time test
Assay type: in vivo
Conditions: oral, 5 mg/kg, 38 mg/kg sodium pentobarbital 60 min later
Lab note: cut-off is 40%. Strictly less in Sleep prolonging rate (%) is true (1). Exactly 40% or more is false (0).

Given the entry CCCC(=O)OCC1OC(n2cnc3c(NCc4ccc(OC(=O)CCC)c(OC)c4)ncnc32)C2OC(C)(C)OC12 (stereo not shown) , would its reported Sleep prolonging rate (%) be below 40%? true (1)

Same thing, different compound: CCCOC[C@H]1O[C@@H](n2cnc3c(NC(C)c4cc(OC)c(OC)c(OC)c4)ncnc32)C(O)C1O (mixture of isomers) true (1)

Same thing, different compound: CCCCCCCC(=O)OC[C@H]1O[C@@H](n2cnc3c(NCc4ccc5c(c4)OCO5)ncnc32)[C@H](O)[C@@H]1O true (1)

Same thing, different compound: OC[C@H](Nc1ncnc2c1ncn2[C@@H]1O[C@H](CO)C(O)C1O)[C@@H](O)c1ccccc1 (stereo partly shown) true (1)

Same thing, different compound: CCCC(=O)OC[C@H]1O[C@@H](n2cnc3c(NCc4ccc(OC(=O)CCC)c(OC)c4)ncnc32)[C@@H](O)C1O (stereo partly shown) true (1)

Same thing, different compound: Cc1ccc([C@@H](C)Nc2ncnc3c2ncn3[C@@H]2O[C@H](CO)[C@@H](O)[C@H]2O)cc1 false (0)

Same thing, different compound: CC(O)CN(CC(C)O)c1ncnc2c1ncn2[C@@H]1O[C@H](CO)[C@@H](O)[C@H]1O (stereo partly shown) [Example 140, N^6,N^6-bis(2-hydroxypropyl)-adenosine] true (1)

Same thing, different compound: C[C@@H](Nc1ncnc2c1ncn2[C@@H]1O[C@H](CO)[C@@H](O)[C@H]1O)c1ccc(F)cc1 false (0)

Same thing, different compound: C[C@@H](Nc1ncnc2c1ncn2[C@@H]1O[C@H](CO)[C@@H](O)[C@H]1O)c1ccc(Cl)cc1 false (0)

Same thing, different compound: CCCCCCCC(=O)OC[C@H]1O[C@@H](n2cnc3c(NCc4ccc(OC(=O)CCCCCCC)c(OC)c4)ncnc32)[C@H](O)[C@@H]1O false (0)

Same thing, different compound: OC[C@H]1O[C@@H](n2cnc3c(NCc4ccccc4O)ncnc32)[C@H](O)[C@@H]1O [Example 3, N^6-(o-hydroxybenzyl)-adenosine] false (0)

Same thing, different compound: C[C@H]([C@H](O)c1ccccc1)N(C)c1ncnc2c1ncn2[C@@H]1O[C@H](CO)C(O)C1O (stereo partly shown) false (0)

Same thing, different compound: CC[C@@H](Nc1ncnc2[nH]cnc12)c1ccccc1 [Example 144, N^6-[(R)-1-(phenyl)-propyl]-adenine] false (0)

Same thing, different compound: OC[C@H]1O[C@@H](n2cnc3c(N[C@@H](c4ccccc4)[C@H](O)c4ccccc4)ncnc32)C(O)C1O (stereo partly shown) true (1)

---

Tested on: male ICR-mice
Assay: Potentiation of sodium pentobarbital sleeping time test
Assay type: in vivo
Conditions: oral, 5 mg/kg, 38 mg/kg sodium pentobarbital 60 min later
Rule: Sleep prolonging rate (%) of 20% or more gives criterion met; anything lower gives criterion not met.

Identify whether the reported Sleep prolonging rate (%) of the following compound is 20% or greater: CCCOC[C@H]1O[C@@H](n2cnc3c(NCc4ccc5c(c4)OCO5)ncnc32)C(O)C1O (some centres unmarked) [Example 35] criterion met

Same thing, different compound: C[C@@H](Nc1ncnc2[nH]cnc12)c1ccccc1 [Example 142, N^6-[(R)-1-(phenyl)-ethyl]-adenine] criterion met

Same thing, different compound: CCN(Cc1ccccc1)c1ncnc2c1ncn2[C@@H]1O[C@H](CO)[C@@H](O)[C@H]1O [Example 134, N^6-ethyl-N^6-benzyl-adenosine] criterion not met

Same thing, different compound: CC[C@@H](Nc1ncnc2c1ncn2[C@@H]1O[C@H](COc2ccccc2[N+](=O)[O-])C(O)[C@@H]1O)c1ccccc1 (some centres unmarked) [Example 85] criterion met

Same thing, different compound: COc1ccc(CCC(=O)OC[C@H]2O[C@@H](n3cnc4c(NC(C)c5cc(OC)c(OC)c(OC)c5)ncnc43)C(O)C2O)cc1 (mixture of isomers) [Example 54] criterion met

Same thing, different compound: Nc1cccc(CNc2ncnc3c2ncn3[C@@H]2O[C@H](CO)[C@@H](O)[C@H]2O)c1 [Example 7, N^6-(m-aminobenzyl)-adenosine] criterion met

Same thing, different compound: OCCN(Cc1ccccc1)c1ncnc2c1ncn2[C@@H]1O[C@H](CO)[C@@H](O)[C@H]1O [Example 138] criterion not met

Same thing, different compound: C[C@H](Nc1ncnc2c1ncn2[C@@H]1O[C@H](CO)[C@@H](O)[C@H]1O)c1ccc(Cl)cc1 [Example 69] criterion met
